System: RAW-Dual
Assay: NF-kB SEAP reporter activity, fold change vs agonist alone; cytotoxicity flag (confluency mask): not cytotoxic; higher = enhanced NF-kB activity
Details: agonist: Pam3CSK4 (TLR2/1) 0.1 ug/mL
Over roughly 2,900 compounds, “NF-kB SEAP reporter activity, fold change vs agonist alone” has its median near 0.99; the highest 2% begin near 2.6. This is one part of a sample in which the highest values are shown more often than they occur.
assay_metric: NF-kB SEAP reporter activity
Lab note: record the figure alone, no unit after it.

Worked set:
Query (compound): CN1CCOC(c2ccccc2)c2ccccc2C1.Cl (stereo unspecified) (library stock concentration (final ~1000-fold dilution): 10 mM water) ; field requested: NF-kB SEAP reporter activity 0.969

Subsequent entry: CCn1cc(-c2ccnc3[nH]c(-c4cccc(CN(C)C)c4)cc23)c(-c2ccc(NC(=O)N(C)C)cc2)n1 (library stock concentration (final ~1000-fold dilution): 10 mM) 3.76

Check CCCOc1ccc(S(=O)(=O)NCCC2CCCN2C)cc1-c1nc(=O)c2c([nH]1)c(CCC)nn2C (stereo unspecified) (library stock concentration (final ~1000-fold dilution): 10 mM) too. 1.14

Now the same for CCOC(=O)C1=CC(OC(CC)CC)C(NC(C)=O)C(N)C1 (stereo unspecified) (library stock concentration (final ~1000-fold dilution): 2 mM) 1.11

// query: Cc1[nH]nc(C(F)(F)F)c1Cc1sc2c(c1C(=O)N1CC(C)(O)CO1)c(=O)n(C)c(=O)n2C(C)C (stereo unspecified) (library stock concentration (final ~1000-fold dilution): 10 mM) 1.06

In the following, a different compound is considered.
Endpoint output: NF-kB SEAP reporter activity of Cl.NC12CC3CC(CC(C3)C1)C2 (library stock concentration (final ~1000-fold dilution): 10 mM) . Value? 1.02

* * *

Test system: RAW-Dual
Test: NF-kB SEAP reporter activity, fold change vs agonist alone; cytotoxicity flag (confluency mask): not cytotoxic; higher = enhanced NF-kB activity
Conditions: agonist: LPS (TLR4) 0.1 ug/mL
Over roughly 2,900 compounds, “NF-kB SEAP reporter activity, fold change vs agonist alone” has its median near 0.99; the highest 2% begin near 2.6. The sample as a whole holds a higher share of the highest values than the screen did.
assay_metric: NF-kB SEAP reporter activity

Use the examples below as a reference point.
// returns reported NF-kB SEAP reporter activity for input N#CCNC(=O)c1ccc(-c2ccnc(Nc3ccc(N4CCOCC4)cc3)n2)cc1 (library stock concentration (final ~1000-fold dilution): 10 mM) 0.233

Now consider O=C(Nc1ccc(-c2ccnc(Nc3ccc(N4CCOCC4)cc3)n2)cc1)C1CCCN1 (stereo unspecified) (library stock concentration (final ~1000-fold dilution): 10 mM) and answer again. 1.86

Try the molecule CCN(C(=O)c1c(O)n(C)c2cccc(Cl)c2c1=O)c1ccccc1 (library stock concentration (final ~1000-fold dilution): 10 mM) 1.08

Can you handle O=C(O)CCc1c[nH]c2ccccc12 (library stock concentration (final ~1000-fold dilution): 10 mM) next? 1.08

Entry C=C(C)C(=O)Nc1cccc(-c2ncnc3[nH]cc(C(=O)OCC)c23)c1 (library stock concentration (final ~1000-fold dilution): 10 mM) please 1.36

Next:
// query NF-kB SEAP reporter activity value for entry CC1CCN(C(=O)CC#N)CC1N(C)c1ncnc2[nH]ccc12 (stereo unspecified) (library stock concentration (final ~1000-fold dilution): 10 mM) 0.799

* * *

System: RAW-Dual
Experiment: NF-kB SEAP reporter activity, fold change vs agonist alone; cytotoxicity flag (confluency mask): not cytotoxic; higher = enhanced NF-kB activity
Conditions: agonist: ODN 1826 (TLR9) 0.5 ug/mL
The full ranking holds about 2,900 compounds; the median of “NF-kB SEAP reporter activity, fold change vs agonist alone” is about 0.99, and the highest 2% start at about 2.6. The list comes from a sample in which the highest values are over-represented; it also holds close analogues and randomly drawn compounds.
assay_metric: NF-kB SEAP reporter activity
Please respond with just the number, no unit label.

State the recorded NF-kB SEAP reporter activity for this entry: COC1CCC(N2C(=O)CNc3ncc(-c4ccc(C(C)(C)O)nc4)nc32)CC1 (stereo not given) (library stock concentration (final ~1000-fold dilution): 10 mM) 0.349

Further, for CC(C)NC(=O)C1CCC(n2c(=NC(=O)c3ccc(F)cc3)[nH]c3ccc(CN4CCC(C(C)(C)O)CC4)cc32)CC1 (stereo not given) (library stock concentration (final ~1000-fold dilution): 10 mM) ? 0.713

Then COC(=O)NC(C(=O)N1CCCC1c1ncc(-c2ccc(-c3ccc(-c4cnc(C5CCCN5C(=O)C(NC(=O)OC)C(C)C)[nH]4)cc3)cc2)[nH]1)C(C)C (stereo not given) (library stock concentration (final ~1000-fold dilution): 10 mM) ? 0.935

How about this compound: c1cncc(CN2CCC(n3ncc4c(N5CCOCC5)nc(-c5ccc6[nH]ccc6c5)nc43)CC2)c1 (library stock concentration (final ~1000-fold dilution): 10 mM) 0.951

Same thing, different compound: Cc1nc(Nc2ncc(C(=O)Nc3c(C)cccc3Cl)s2)cc(N2CCN(CCO)CC2)n1.O (library stock concentration (final ~1000-fold dilution): 10 mM) 0.661

Follow-up entry: O=C(Nc1ccccc1C(=O)NC1CCCCNC1=O)c1cc2ccccc2s1 (stereo not given) (library stock concentration (final ~1000-fold dilution): 10 mM) 1.04

Follow-up entry: CCOC(=O)C(CCc1ccccc1)NC1CCc2ccccc2N(CC(=O)O)C1=O.Cl (stereo not given) (library stock concentration (final ~1000-fold dilution): 10 mM) 0.98

What do we get for COc1cc2c3cc1Oc1c(OC)c(OC)cc4c1C(Cc1ccc(O)c(c1)Oc1ccc(cc1)CC3N(C)CC2)N(C)CC4.Cl.Cl (stereo not given) (library stock concentration (final ~1000-fold dilution): 10 mM) ? 0.2

***
May I ask what NF-kB SEAP reporter activity has been recorded for CN1CCN(Cc2ccc(-c3cnc4[nH]cc(-c5ccc6[nH]ccc6c5)c4c3)cc2)CC1 (library stock concentration (final ~1000-fold dilution): 10 mM) ? 0.181

Then what about the compound CCOc1cc(C(CS(C)(=O)=O)N2C(=O)c3cccc(NC(C)=O)c3C2=O)ccc1OC (stereo not given) (library stock concentration (final ~1000-fold dilution): 10 mM) ? 1.87

* * *

Reported NF-kB SEAP reporter activity values for a set of compounds
Tested on: RAW-Dual
Experiment: NF-kB SEAP reporter activity, fold change vs agonist alone; cytotoxicity flag (confluency mask): not cytotoxic; higher = enhanced NF-kB activity
Details: agonist: ODN 1826 (TLR9) 0.5 ug/mL
Whole data set: some 2,900 compounds, median “NF-kB SEAP reporter activity, fold change vs agonist alone” near 0.99, cut for the highest 2% near 2.6. Shown is part of a subset that was picked to be rich in the highest values.
Kindly provide the number alone.

Known results for compounds:
Which measured NF-kB SEAP reporter activity value corresponds to Cl.O=S(=O)(c1cccc2c(I)cccc12)N1CCCNCC1 (library stock concentration (final ~1000-fold dilution): 10 mM) ? 0.722

Repeat with CC(C)(C)c1ccc(Cn2nc(-c3ccc(Cl)cc3)cc2C(=O)NO)cc1 (library stock concentration (final ~1000-fold dilution): 10 mM) 1.24

What would you report for O=C(Cc1ccc(-c2ccc(OCCN3CCOCC3)cc2)cn1)NCc1ccccc1 (library stock concentration (final ~1000-fold dilution): 10 mM) ? 3.36

---
Could you tell me which NF-kB SEAP reporter activity is on file for Cc1ccc(-n2nc(C(C)(C)C)cc2NC(=O)Nc2ccc(OCCN3CCOCC3)c3ccccc23)cc1 (library stock concentration (final ~1000-fold dilution): 10 mM) ? 0.449

Also CCOC(=O)C(CCc1ccccc1)NC(C)C(=O)N1CCCC1C(=O)O.O=C(O)/C=C\C(=O)O (stereo not given) (library stock concentration (final ~1000-fold dilution): 10 mM) ? 1.04

* * *

Tested on: RAW-Dual
Assay: NF-kB SEAP reporter activity, fold change vs agonist alone; higher = enhanced NF-kB activity
Conditions: library stock concentration (final ~1000-fold dilution): 10 mM; cytotoxicity flag (confluency mask): cytotoxic (confluency <70% of control); agonist: MPLA (TLR4) […]
Over roughly 2,900 compounds, “NF-kB SEAP reporter activity, fold change vs agonist alone” has its median near 0.99; the highest 2% begin near 2.6. Shown is part of a subset that was picked to be rich in the highest values.
Below, each entry is listed with its recorded NF-kB SEAP reporter activity.
Lab note: write the figure by itself, no unit.

Field: example entries. Status: answers known.
Query the reported NF-kB SEAP reporter activity for RAW-Dual; item: CN1CCN(Cc2ccc(NC(=O)Nc3ccc(Oc4ccnc(N)n4)cc3)cc2C(F)(F)F)CC1 0.248

Also check CN1CCc2cc(Nc3ncc(C4CC4)c(NCCCNC(=O)C4CCC4)n3)ccc2C1 0.288

Further cases:
Entry CC(C)(C)c1nc(-c2ccc(NC(=O)Nc3cccc(C(F)(F)F)c3)c3ccccc23)c2c(N)nccn12 , system RAW-Dual: what NF-kB SEAP reporter activity was measured? 0.252
